Each entry below carries its recorded pIC50.
test system: human glioblastoma cell line U251; experiment: ATCC MTT Cell Proliferation Assay, U251; type: cell-based; conditions: U251, 72 hours treatment
FYI, pIC50 means -log10 of a concentration in mol per litre.

[Ga+3].[O-]c1cccc2cccnc12.[O-]c1cccc2cccnc12.[O-]c1cccc2cccnc12 [tris(8-quinolinolato)gallium(III)]	5.39

Please examine the following record next.
I'm curious: which pIC50 was measured for O=NN(CCCl)C(=O)NCCCl [BCNU] tested on human glioblastoma cell line U251?
4.27

---

system: human glioblastoma cell line U251; test: ATCC MTT Cell Proliferation Assay, U251; format: cell-based; conditions: Homo sapiens, U-251; U251, 72 hours treatment
Quantity measured: pIC50
In plain terms, pIC50 is the concentration in mol/L turned into minus its base-10 logarithm.

Fill blank: measured pIC50 of the compound Cn1nnc2c(C(N)=O)ncn2c1=O [temozolomide] is ____.
3.55
